From: patent US20250302974A1

assayNotes: Cytotoxic effect by MTT assay, 48 h
property: cytotoxicity at 48 h, 1 µM (%)

{"columns": ["givenSmiles", "property", "measureUnit", "measuredResult"],
 "data": [
  ["COc1cccc2c1C(=O)c1c(O)c3c(c(O)c1C2=O)C[C@@](O)(C(=O)CO)C[C@@H]3O[C@H]1C[C@H](N)[C@H](O)[C@H](C)O1", "cytotoxicity at 48 h, 1 µM", "%", 29.3]
]}

* * *

assayNotes: Cytotoxic effect by MTT assay, 48 h
property: cytotoxicity at 48 h, 10 µM

{"columns": ["givenSmiles", "property", "measuredResult"],
 "data": [
  ["COc1cccc2c1C(=O)c1c(O)c3c(c(O)c1C2=O)C[C@@](O)(C(=O)CO)C[C@@H]3O[C@H]1C[C@H](N)[C@H](O)[C@H](C)O1", "cytotoxicity at 48 h, 10 µM", "37.4%"]
]}
